Data provenance is patent US8138171B2.

testSystem: HCV NS5B RdRp genotype 1b (Hepatitis C virus genotype 1b, UniProt P26663)
Construct: The protein was expressed with an 18 amino acid C-terminal truncation to enhance the solubility; made in house; host or cells: E. coli BL21(DE3), pET21a
Sequence (P26663 2420-2992): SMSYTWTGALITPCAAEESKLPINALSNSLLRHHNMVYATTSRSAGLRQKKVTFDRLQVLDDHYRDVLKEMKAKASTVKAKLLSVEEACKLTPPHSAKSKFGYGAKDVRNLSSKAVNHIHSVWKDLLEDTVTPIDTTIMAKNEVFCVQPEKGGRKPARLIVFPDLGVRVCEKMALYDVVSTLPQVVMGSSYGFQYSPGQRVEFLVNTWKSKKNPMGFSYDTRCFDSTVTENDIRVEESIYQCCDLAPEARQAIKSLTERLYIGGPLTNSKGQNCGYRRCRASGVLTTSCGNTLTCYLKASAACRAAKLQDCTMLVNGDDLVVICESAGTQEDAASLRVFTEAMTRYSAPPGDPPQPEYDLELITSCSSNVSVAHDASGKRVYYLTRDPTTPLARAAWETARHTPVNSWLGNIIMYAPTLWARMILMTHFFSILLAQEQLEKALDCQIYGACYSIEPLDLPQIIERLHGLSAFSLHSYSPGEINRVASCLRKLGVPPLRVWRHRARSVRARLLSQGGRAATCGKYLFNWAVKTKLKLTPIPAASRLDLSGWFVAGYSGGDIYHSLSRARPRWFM
testSummary: Modified HCV NS5B RdRp enzyme assay (preincubation protocol)
Assay type: biochemical
observationType: pIC50
Conceptually, pIC50 converts a concentration in mol/L into minus its log10.

Could you share which pIC50 value was measured for COc1ccc2c(c1)[C@@H]1OCO[C@]1(C(=O)N1C3CCC1CN(C)C3)Cn1c-2c(C2CCCCC2)c2ccc(C(=O)NS(=O)(=O)N(C)C)cc21 (racemic) [Example 6] ?
6.37

Repeat for the following molecule: COc1ccc2c(c1)[C@@H]1OC(=O)O[C@]1(C(=O)N1C3CCC1CN(C)C3)Cn1c-2c(C2CCCCC2)c2ccc(C(=O)NS(=O)(=O)N(C)C)cc21 (racemic) [Example 4]
7.04

Repeat for the following molecule: COc1ccc2c(c1)[C@@H]1OC(C)(C)O[C@]1(C(=O)N1C3CCC1CN(C)C3)Cn1c-2c(C2CCCCC2)c2ccc(C(=O)NS(=O)(=O)N(C)C)cc21 (racemic) [Example 5]
6.23

###

testSystem: HCV NS5B RdRp genotype 1b (Hepatitis C virus genotype 1b)
Construct: The protein was expressed with an 18 amino acid C-terminal truncation to enhance the solubility; made in house; host or cells: E. coli BL21(DE3), pET21a
testSummary: Modified HCV NS5B RdRp enzyme assay (preincubation protocol)
Format: biochemical
settings: HCV NS5B RdRp genotype 1b; preincubation protocol; read-out: IC50
I'd appreciate it if you could supply pIC50 values for the items below.
Conceptually, pIC50 converts a concentration in mol/L into minus its log10.

Could you share which pIC50 value was measured for COc1ccc2c(c1)[C@@H]1OC(=O)O[C@]1(C(=O)N1C[C@@H](C)O[C@@H](C)C1)Cn1c-2c(C2CCCCC2)c2ccc(C(=O)NS(=O)(=O)N(C)C)cc21 (racemic) [Example 2] ?
7.48

Repeat for the following molecule: COc1ccc2c(c1)[C@@H]1OC(C)(C)O[C@]1(C(=O)N1C[C@@H](C)O[C@@H](C)C1)Cn1c-2c(C2CCCCC2)c2ccc(C(=O)NS(=O)(=O)N(C)C)cc21 (racemic) [Example 3]
6.96

Repeat for the following molecule: COc1ccc2c(c1)[C@@H]1OC(C)(C)O[C@]1(C(=O)N(C)CCN(C)C)Cn1c-2c(C2CCCCC2)c2ccc(C(=O)NS(=O)(=O)N(C)C)cc21 (racemic) [Example 1]
6.77

###

Tested on: HCV replicon cells
testSummary: HCV replicon FRET assay
Format: cell-based
settings: Hepatitis C virus; HCV replicon cells; FRET assay; read-out: EC50
I'd appreciate it if you could supply EC50 values for the items below.
I only need the number, in nM, no unit after it.

Item: COc1ccc2c(c1)[C@@H]1OC(=O)O[C@]1(C(=O)N1C[C@@H](C)O[C@@H](C)C1)Cn1c-2c(C2CCCCC2)c2ccc(C(=O)NS(=O)(=O)N(C)C)cc21 (racemic) [Example 2] Test system: HCV replicon cells Read-out: EC50 Value: ?
59

Repeat for the following compound: COc1ccc2c(c1)[C@@H]1OC(C)(C)O[C@]1(C(=O)N(C)CCN(C)C)Cn1c-2c(C2CCCCC2)c2ccc(C(=O)NS(=O)(=O)N(C)C)cc21 (racemic) [Example 1]
130
